protocol_description: chemical genetic growth profiling, strain panel (AID 1159580);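 note: tested at 20 µM; growth read once vehicle control cultures reached saturation at 30 °C; 1 = growth at the plate median or of vehicle wells; lower values mean less growth of the strain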
setup_conditions: S. cerevisiae deletion strains, growth OD, locus YIL073C, strain SPO22, active compounds read low
About 2,000 (36%) of roughly 5,500 compounds were called active. Roughly 18% stayed inconclusive and do not appear here. This is one part of the list.
experimental_endpoint: normalized growth
// response body must contain only the number

// worked examples, normalized growth included
compound="CC1CC2C(C(O)CC3(C)C2CCC3(O)C(=O)COC(=O)CCC(=O)O)C2(C)C=CC(=O)C=C12 (configuration not stated)" result_value=0.973
compound="O=C(O)CCCCC1SCC2NC(=O)NC21 (configuration not stated)" result_value=1.02
compound=CC[C@]12CCCN3CCc4c(n(c5ccccc45)C(=O)C1)[C@@H]32 result_value=0.692
compound=CCOC(=O)C1=C[C@]2(CC)CCCN3CCc4c(n1c1ccccc41)[C@@H]32 result_value=1.02
compound=CC[C@]12CCCN3CCc4c(n(c5ccccc45)[C@](O)(C(=O)OC)C1)[C@@H]32 result_value=0.965

Consider the compound shown here: C#C[C@]1(O)CCC2C3CCc4cc(O)ccc4C3CC[C@@]21C (some centres not stated) What is its recorded normalized growth? 1.01

Consider the compound shown here: `CC1=C(/C=C/C(C)=C/C=C/C(C)=C/C=C/C=C(C)/C=C/C=C(C)/C=C/C2=C(C)CCCC2(C)C)C(C)(C)CCC1` What is its recorded normalized growth? 1.07

Consider the compound shown here: `COC(=O)[C@H]1[C@H]2C[C@@H]3c4[nH]c5cc(OC)ccc5c4CCN3C[C@H]2C[C@@H](OC(=O)c2cc(OC)c(OC)c(OC)c2)[C@@H]1OC` What is its recorded normalized growth? 1.06

Consider the compound shown here: `O=c1cccc2n1C[C@H]1CNCC2C1` What is its recorded normalized growth? 0.947

Consider the compound shown here: `CCOP(=S)(OCC)Oc1ccc2c(C)c(Cl)c(=O)oc2c1` What is its recorded normalized growth? 0.988

====

protocol_description: chemical genetic growth profiling, strain panel (AID 1159580);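 note: tested at 20 µM; growth read once vehicle control cultures reached saturation at 30 °C; 1 = growth at the plate median or of vehicle wells; lower values mean less growth of the strain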
setup_conditions: S. cerevisiae deletion strains, growth OD, locus YNL153C, strain GIM3, active compounds read low
Among all 5,500 compounds or so, about 2,000 (36%) were called active. Not shown: some 18% with an inconclusive outcome. Some of the results follow.
For each record, check the reported normalized growth: if it is below 1 write y, else write n.

Use these answered entries as a reference point.
molecule="CCOC(=O)CCCCCCCCCCCCC1C=CCC1 (configuration not stated)" answer_label=y
molecule=CCC(=O)c1ccc(-c2ccccc2)cc1 answer_label=y

We next turn to a different molecule, shown below.
Bench note: check whether `CCC(=O)N1CCN(C(=O)c2ccccc2)CC1` shows normalized growth below 1 n

====

protocol_description: chemical genetic growth profiling, strain panel (AID 1159580);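 note: tested at 20 µM; growth read once vehicle control cultures reached saturation at 30 °C; 1 = growth at the plate median or of vehicle wells; lower values mean less growth of the strain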
setup_conditions: S. cerevisiae deletion strains, growth OD, locus YJL095W, strain BCK1 (second series), active compounds read low
Screen size: about 5,500 compounds; about 2,000 (36%) were called active. Roughly 18% stayed inconclusive and do not appear here. Some of the results follow.
experimental_endpoint: normalized growth
// response body must contain only the number

Consider the compound shown here: `CCOc1ccc2c(c1)C(C)=CC(C)(C)N2` What is its recorded normalized growth? 0.99

Consider the compound shown here: `COP(=S)(OC)Oc1ccc(SC)c(C)c1` What is its recorded normalized growth? 0.97

Consider the compound shown here: `COC(=O)[C@H]1[C@H]2C[C@@H]3c4[nH]c5cc(OC)ccc5c4CCN3C[C@H]2C[C@@H](OC(=O)c2cc(OC)c(OC)c(OC)c2)[C@@H]1OC` What is its recorded normalized growth? 0.965

Consider the compound shown here: `O=C1CN(/N=C\c2ccc([N+](=O)[O-])o2)C(=O)N1` What is its recorded normalized growth? 0.982

Consider the compound shown here: CC[C@]1(O)CC2CN(CCc3c([nH]c4ccccc34)[C@@](C(=O)OC)(c3cc4c(cc3OC)N(C=O)[C@H]3[C@@](O)(C(=O)OC)[C@H](OC(C)=O)[C@]5(CC)C=CCN6CC[C@]43[C@@H]65)C2)C1 (stereo not given in full) What is its recorded normalized growth? 0.988
